Data provenance: PubChem BioAssay AID488969

- Target: Metabotropic glutamate receptor 8 (Rattus norvegicus) (UniProt P70579)
- Sequence (P70579 whole entry, looked up): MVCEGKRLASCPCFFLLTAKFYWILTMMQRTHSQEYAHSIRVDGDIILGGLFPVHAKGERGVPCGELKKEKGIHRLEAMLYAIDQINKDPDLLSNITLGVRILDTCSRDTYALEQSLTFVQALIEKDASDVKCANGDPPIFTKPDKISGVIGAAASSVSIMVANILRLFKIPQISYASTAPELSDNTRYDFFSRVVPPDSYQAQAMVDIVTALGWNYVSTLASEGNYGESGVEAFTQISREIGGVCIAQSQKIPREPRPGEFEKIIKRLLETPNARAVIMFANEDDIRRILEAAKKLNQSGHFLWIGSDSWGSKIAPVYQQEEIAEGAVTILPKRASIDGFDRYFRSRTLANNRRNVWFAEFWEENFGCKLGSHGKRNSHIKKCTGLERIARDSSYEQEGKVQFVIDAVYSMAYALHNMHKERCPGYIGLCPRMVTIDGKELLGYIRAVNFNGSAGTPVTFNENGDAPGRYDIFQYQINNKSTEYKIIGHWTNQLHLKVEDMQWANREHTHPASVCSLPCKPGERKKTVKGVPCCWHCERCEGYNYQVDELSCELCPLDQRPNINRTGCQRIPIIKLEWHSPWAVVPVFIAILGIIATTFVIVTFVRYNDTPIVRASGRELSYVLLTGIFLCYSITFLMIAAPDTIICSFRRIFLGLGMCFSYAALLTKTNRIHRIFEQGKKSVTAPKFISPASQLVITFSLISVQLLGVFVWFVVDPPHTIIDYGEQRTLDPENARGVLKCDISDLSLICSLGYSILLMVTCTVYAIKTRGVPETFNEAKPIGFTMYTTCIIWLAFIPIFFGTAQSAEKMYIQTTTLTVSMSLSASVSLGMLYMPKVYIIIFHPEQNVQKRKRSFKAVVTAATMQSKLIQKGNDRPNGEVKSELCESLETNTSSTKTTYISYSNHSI
- Test details: mGluR8 Gi/Go-coupled signaling modulation – cell-based, rat, thallium flux, HTS, primary screen (AID 488969)
- Condition details: HEK293 rat mGluR8, GIRK (G protein-gated inwardly rectifying potassium channel) thallium flux, FluoZin2; at 10 µM; stronger effect = higher value; submaximal glutamate (EC20) added with thallium
The full ranking holds about 110,000 compounds; the median of “z-score” is about -0.1, and the highest 2% start at about 2. Shown is part of a subset that was picked to be rich in the highest values. Activity calls are given as the source filed them.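 How the source made its calls: active means z-score in the third read window above 3 or below -3; inactive means the rest.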
Observed property: z-score

# annotated cases, reported z-score shown
| Smiles str | z-score |
| --- | --- |
| CC(=O)N(C)c1nnc(-c2ccccn2)s1 | -0.0164 |
| COc1ccc(CNC(=O)CSCc2cnn(-c3ccccc3)c2-n2cccc2)cc1 | 0.0302 |
| CCCCCCCCCc1nc(N)n[nH]1 | -0.191 |
| N#Cc1cnc(SCC(=O)c2ccccc2)nc1N | 0.0176 |
| CCCCCCCCc1nc(=S)[nH][nH]1 | 15.3 (active) |

Query: Any idea what its z-score is? The molecule is CCCCOc1ccc(-c2nc(=S)[nH][nH]2)cc1
Result: 0.294

Query: Any idea what its z-score is? The molecule is FC(F)(F)C1=CC(c2ccccc2)=NCCN1
Result: -0.25
